Recorded Activity for the following compounds
- target.under.test: UniProt:P59676
- Sequence (whole entry): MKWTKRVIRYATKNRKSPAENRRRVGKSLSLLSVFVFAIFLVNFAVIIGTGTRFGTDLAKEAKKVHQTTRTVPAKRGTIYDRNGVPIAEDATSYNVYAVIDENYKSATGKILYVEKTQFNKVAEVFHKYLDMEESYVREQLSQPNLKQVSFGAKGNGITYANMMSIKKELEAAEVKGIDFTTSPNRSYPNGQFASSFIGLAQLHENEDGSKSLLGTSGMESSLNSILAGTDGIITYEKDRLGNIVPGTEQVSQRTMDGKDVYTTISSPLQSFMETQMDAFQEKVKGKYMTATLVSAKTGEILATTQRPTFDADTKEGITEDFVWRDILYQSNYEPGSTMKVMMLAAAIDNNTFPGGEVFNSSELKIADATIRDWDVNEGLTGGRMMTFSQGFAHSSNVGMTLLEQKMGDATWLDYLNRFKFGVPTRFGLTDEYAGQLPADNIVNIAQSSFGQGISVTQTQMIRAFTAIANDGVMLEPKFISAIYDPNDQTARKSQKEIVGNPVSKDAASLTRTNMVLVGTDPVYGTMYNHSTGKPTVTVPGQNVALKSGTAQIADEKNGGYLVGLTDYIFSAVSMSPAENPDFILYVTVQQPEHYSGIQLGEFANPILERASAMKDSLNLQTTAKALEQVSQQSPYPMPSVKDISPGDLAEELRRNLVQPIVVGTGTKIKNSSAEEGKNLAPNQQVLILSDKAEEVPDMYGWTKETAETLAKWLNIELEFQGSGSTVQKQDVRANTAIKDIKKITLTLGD
- protocol.description: Inhibition of penicillin-sensitive Streptococcus pneumoniae R6 PBP2x using S2d as substrate assessed as residual activity at 1 mM incubated for 60 mins prior to substrate addition by DTNB-based spectrophotometry in presence of triton X 100
Entry rule: numbers only, all in %.

The cases that follow already have their Activity on record.
COc1ccc(C(=O)NCB(O)O)c(OC)c1
69
O=C(NCB(O)O)c1ccccc1Cl
31
O=C(NCB(O)O)c1cccs1
66

With those in mind, consider the next compound.
Report Activity for O=C(NCB(O)O)c1ccccc1[N+](=O)[O-]
21

====

Reported pKi, UniProtKB P39045.
Sequence (P39045 whole entry): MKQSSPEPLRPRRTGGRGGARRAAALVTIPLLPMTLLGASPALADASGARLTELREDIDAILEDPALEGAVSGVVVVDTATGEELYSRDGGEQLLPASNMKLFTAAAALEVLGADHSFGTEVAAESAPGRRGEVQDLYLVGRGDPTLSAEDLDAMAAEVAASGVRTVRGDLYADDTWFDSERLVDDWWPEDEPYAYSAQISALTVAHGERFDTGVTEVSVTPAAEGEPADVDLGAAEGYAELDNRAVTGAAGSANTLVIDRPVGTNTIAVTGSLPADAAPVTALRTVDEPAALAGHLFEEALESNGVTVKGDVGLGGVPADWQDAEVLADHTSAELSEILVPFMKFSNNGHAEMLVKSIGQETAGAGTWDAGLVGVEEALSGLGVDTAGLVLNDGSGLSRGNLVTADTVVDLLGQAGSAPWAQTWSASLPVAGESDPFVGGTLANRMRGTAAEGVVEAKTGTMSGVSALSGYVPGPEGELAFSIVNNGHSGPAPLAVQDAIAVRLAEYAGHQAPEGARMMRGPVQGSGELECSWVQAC
Note on pKi: it is the negative log10 of concentration, concentration in mol/L.

COc1cccc(OC)c1C(=O)NCB(O)O
5.82

Check UniProtKB P39045 data and give pKi for O=C(NCB(O)O)c1ccccc1Cl .
4.38

Check UniProtKB P39045 data and give pKi for O=C(NCB(O)O)c1ccccc1[N+](=O)[O-] .
6.44

Check UniProtKB P39045 data and give pKi for O=C(Cc1ccccc1)NCB(O)O .
3.90

====

- System: Staphylococcus aureus
- protocol.description: Inhibition of penicillin-resistant Staphylococcus aureus PBP2a assessed as residual activity at 1 mM incubated for 4 hrs prior to prior to fluoresceyl-ampicillin labelling measured after 20 mins by SDS-PAGE analysis
One threshold, 90%, splits the recorded Activity values: lower ones are class 1, equal or higher ones are class 0.

O=C(NCB(O)O)c1ccccc1
class 1
O=C(Cc1ccccc1Cl)NCB(O)O
class 1
COc1ccc(C(=O)NCB(O)O)cc1OC
class 1
O=C(NCB(O)O)c1ccc(Cl)cc1
class 0
O=C(CCc1ccccc1)NCB(O)O
class 1
O=C(Cc1ccccc1[N+](=O)[O-])NCB(O)O
class 1

Quick check: Activity of O=C(NCB(O)O)c1ccccc1Cl under 90%?
class 1

Quick check: Activity of O=C(CCC1CCCC1)NCB(O)O under 90%?
class 0
